targetOfAssay: LIMK2, P53671
Sequence (P53671 143-248): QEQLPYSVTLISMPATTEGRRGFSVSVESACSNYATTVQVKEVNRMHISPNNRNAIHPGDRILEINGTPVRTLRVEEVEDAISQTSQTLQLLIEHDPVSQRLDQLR
testDescription: holdup assay
Parameters: key: below the threshold = too weak to quantify, mostly under pKd 3.1 to 4
settings: plain residues with an end cap or a label only (N-terminal biotin on a linker: ado-ado)
measuredAttribute: pKd

EKPIDSETKM [SLC1A3, P43003] :: below the threshold
RDYTQSSSSL [GRM5, P41594] :: below the threshold
QKNKDREYYV [NRXN3, Q9HDB5] :: below the threshold
SQDPKKPSRV [CBY2, Q8NA61] :: below the threshold
LLQEEWETVM [PTH1R, Q03431] :: below the threshold

Report pKd for QLGSPTADLA [SIPA1, Q96FS4] please. below the threshold

For EAVTVESTSL [SLC22A11, Q9NSA0] then? below the threshold

For AHGSTRDQSI [KCNB1, Q14721] then? below the threshold

For AKADAQESRL [PLCB2, Q00722] then? below the threshold

For SAGADSETHC [SLCO1B1, Q9Y6L6] then? below the threshold

For KKTPVSRSHL [SLC22A3, O75751] then? below the threshold

For DYSNLRETDI [ADRA1D, P25100] then? below the threshold

For KEKASTETEC [TRPM1, Q7Z4N2] then? below the threshold

For SRPHTNETSL [MCC, P23508] then? below the threshold

For PGKKPEDSRV [SLCO2B1, O94956] then? below the threshold

For EPAKETTTNV [SLC2A3, P11169] then? below the threshold

For IGHEDLETAV [DGKI, O75912] then? below the threshold

For LPPPESESKV [KCNJ9, Q92806] then? below the threshold

For GSQSQVETEA [FKBP4, Q02790] then? below the threshold

For ELKAEDEVQI [DCHS2, Q6V1P9] then? below the threshold

For IQISELETNV [SLC1A7, O00341] then? below the threshold
